EXPERIMENTAL TARGET: Aspartate--tRNA(Asp/Asn) ligase (Mycobacterium tuberculosis (strain ATCC 25618 / H37Rv)) (UniProt P9WFW3)
Sequence (P9WFW3 whole entry): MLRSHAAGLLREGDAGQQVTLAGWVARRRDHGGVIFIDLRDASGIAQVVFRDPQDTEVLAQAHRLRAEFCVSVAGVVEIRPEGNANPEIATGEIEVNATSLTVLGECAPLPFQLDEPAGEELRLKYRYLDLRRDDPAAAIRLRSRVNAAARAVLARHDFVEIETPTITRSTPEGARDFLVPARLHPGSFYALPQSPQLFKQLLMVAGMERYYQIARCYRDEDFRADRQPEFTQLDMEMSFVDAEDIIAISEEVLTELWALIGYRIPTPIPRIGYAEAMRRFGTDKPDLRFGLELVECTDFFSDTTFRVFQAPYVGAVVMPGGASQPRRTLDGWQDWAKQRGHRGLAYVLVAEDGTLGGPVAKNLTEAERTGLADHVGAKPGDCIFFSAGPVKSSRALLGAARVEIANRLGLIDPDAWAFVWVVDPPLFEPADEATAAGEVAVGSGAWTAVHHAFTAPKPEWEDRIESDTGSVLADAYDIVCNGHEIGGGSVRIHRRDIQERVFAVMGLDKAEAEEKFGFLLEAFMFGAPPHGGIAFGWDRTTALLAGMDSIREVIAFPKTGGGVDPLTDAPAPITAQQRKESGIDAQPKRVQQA
MEASUREMENT DESCRIPTION: Assay for Asp RNA synthetase-1 from Mycobacterium tuberculosis
Assay type: functional
Parameters: scale not given: in the data most compounds retested in dose-response had high values
CONDITIONS: 30 µM
Kindly supply the reported Percent Effect values for the records listed here.
Please respond with the number in % and leave the unit unwritten.

QUERY: Name the recorded Percent Effect for O=S(=O)(C1CC1)N1CCC2(CC1)CC(Oc1cccnc1)CO2 (stereo not drawn) .
RESULT: 6.21

QUERY: Report Percent Effect for CCCNCc1cc2c(C)cc(C)cc2n2c(=O)n(C)nc12 please.
RESULT: -5.73

QUERY: # get_value(readout='Percent Effect', item= O=C(O)c1ccn(-c2ccccc2NS(=O)(=O)c2ccccc2)n1 )
RESULT: 1.9

QUERY: Using the record for CC(C)NC(=O)C1CN(C(=O)N2CCCC2)CC12CCOCC2 (stereo not drawn) , report its Percent Effect.
RESULT: -2.03

QUERY: Value lookup for Percent Effect; key = COc1cc(CNCc2ccc(C(C)O)cc2)cc2c1OCO2 (stereo not drawn)
RESULT: -6.24

QUERY: I have this molecule here, Clc1ccc(OCCCN2CCN(c3cnccn3)CC2)cc1 , and I need its recorded Percent Effect.
RESULT: 1.06

QUERY: Look up Percent Effect: Cc1ccc(CN2CCCC3(CCN(S(=O)(=O)N(C)C)C3)C2)o1 (stereo not drawn)
RESULT: 0.162

QUERY: What does the record list as Percent Effect for c1ccc(OC[C@]23COC[C@H]2CN(c2ncccn2)C3)nc1 ?
RESULT: 1.95

QUERY: Name the reported Percent Effect value associated with the molecule COC1CCCN(C(=O)Nc2nc(C)n(C)n2)C1 (stereo not drawn)
RESULT: -3.53

QUERY: Fill in: Percent Effect of CN(C)[C@@H]1CN(Cc2ccco2)C[C@@H]2CCCO[C@@H]21 is ___
RESULT: -2

QUERY: Please give the measured Percent Effect for this molecule: CS(=O)(=O)NC[C@]12COC[C@H]1CN(C(=O)c1ccccc1)C2
RESULT: -2.14

QUERY: For the molecule shown here, CO[C@@H]1CC[C@H]2[C@H]1OCCN2C(=O)c1ccc(C)o1 , give the reported Percent Effect.
RESULT: 2.26

QUERY: Reported Percent Effect for CCn1cc(CN2CCc3nc(N4CCOCC4)nc(O)c3CC2)cn1 : what is it?
RESULT: -1.83

Value source: ChEMBL document CHEMBL3988442
